molecular target: Protein deacetylase HDAC6 (Homo sapiens) (UniProt Q9UBN7); conditions: at 30 µM
Description: Inhibition of human KDAC6 at 30 uM using FITC-labeled histone H4 acetylated peptide as substrate after 60 mins by fluorescence assay relative to control
quantityName: inhibition

> print(dat)
                                 itemsmiles                        experimentaltarget  quantityname  result
1  CC[C@@H](C)[C@@H]1N=C(c2ccccc2)c2ccccc2N(CCCCC(=O)NO)C1=O  Protein deacetylase HDAC6 (Homo sapiens) (UniProt Q9UBN7)    inhibition   90.9%
2  CC(C)(C)OC(=O)NCCCC[C@@H]1N=C(c2ccccc2)c2ccccc2N(CCCCC(=O)NO)C1=O  Protein deacetylase HDAC6 (Homo sapiens) (UniProt Q9UBN7)    inhibition   89.9%
3  O=C(CCCCN1C(=O)[C@H](CC(=O)NO)N=C(c2ccccc2)c2ccccc21)NO  Protein deacetylase HDAC6 (Homo sapiens) (UniProt Q9UBN7)    inhibition   42.5%
4  O=C(CC[C@H]1N=C(c2ccccc2)c2ccccc2NC1=O)NO  Protein deacetylase HDAC6 (Homo sapiens) (UniProt Q9UBN7)    inhibition     19%
5  O=C(CCCCN1C(=O)[C@H](CO)N=C(c2ccccc2)c2ccccc21)NO  Protein deacetylase HDAC6 (Homo sapiens) (UniProt Q9UBN7)    inhibition   74.4%
6  CC(C)(C)Oc1ccc(C[C@@H]2N=C(c3ccccc3)c3ccccc3N(CCCCC(=O)NO)C2=O)cc1  Protein deacetylase HDAC6 (Homo sapiens) (UniProt Q9UBN7)    inhibition   92.1%
7  O=C(O)CC[C@H]1N=C(c2ccccc2)c2ccccc2NC1=O  Protein deacetylase HDAC6 (Homo sapiens) (UniProt Q9UBN7)    inhibition      0%
8  CC(C)(C)OC(=O)NCCCC[C@@H]1N=C(c2ccccc2)c2ccccc2N(CCCCC(=O)O)C1=O  Protein deacetylase HDAC6 (Homo sapiens) (UniProt Q9UBN7)    inhibition      0%
9  COC(=O)CCCCN1C(=O)[C@H](CC(C)C)N=C(c2ccccc2)c2ccccc21  Protein deacetylase HDAC6 (Homo sapiens) (UniProt Q9UBN7)    inhibition      0%

###

Quick record: IC50, Histone deacetylase 1 (Homo sapiens).
quantityName: IC50

> print(dat)
                                 itemsmiles   result
1  COC(=O)CCCCN1C(=O)[C@@H](CSC(C)(C)C)N=C(c2ccccc2)c2ccccc21  > 30 µM
2  CC(C)(C)OC(=O)n1c(C[C@@H]2N=C(c3ccccc3)c3ccccc3N(CCCCC(=O)NO)C2=O)cc2ccccc21  > 30 µM
3  O=C(O)CCCCN1C(=O)[C@H](CC(=O)O)N=C(c2ccccc2)c2ccccc21  > 30 µM
4  O=C(CCCCN1C(=O)[C@H](Cc2cnc[nH]2)N=C(c2ccccc2)c2ccccc21)NO  13.9 µM
5  NCCCC[C@@H]1N=C(c2ccccc2)c2ccccc2N(CCCCC(=O)NO)C1=O  6.54 µM

###

Target: Histone deacetylase 8 (Homo sapiens)
Sequence (whole entry): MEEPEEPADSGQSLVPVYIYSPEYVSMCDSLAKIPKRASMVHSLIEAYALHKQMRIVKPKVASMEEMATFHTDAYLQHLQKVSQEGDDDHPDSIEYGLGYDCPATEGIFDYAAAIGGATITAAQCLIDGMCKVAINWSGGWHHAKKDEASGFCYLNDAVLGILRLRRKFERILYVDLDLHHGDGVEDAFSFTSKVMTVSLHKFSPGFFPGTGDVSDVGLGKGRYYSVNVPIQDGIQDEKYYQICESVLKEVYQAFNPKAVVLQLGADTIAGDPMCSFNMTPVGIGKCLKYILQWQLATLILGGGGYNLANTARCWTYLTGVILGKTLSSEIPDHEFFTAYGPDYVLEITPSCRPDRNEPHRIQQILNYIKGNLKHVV
Assay: Inhibition of human KDAC8 at 30 uM after 60 mins by fluorescence assay relative to control
I would appreciate it if you labelled entries YES when inhibition is 40% or higher, otherwise NO.

> print(dat)
                                   molecule  category
1        C[C@@H]1N=C(c2ccccc2)c2ccccc2NC1=O        NO
2  CC(C)(C)SC[C@H]1N=C(c2ccccc2)c2ccccc2N(CCCCC(=O)NO)C1=O       YES
3  O=C(O)C[C@@H]1N=C(c2ccccc2)c2ccccc2NC1=O        NO
4  O=C(CCCCN1C(=O)CN=C(c2ccccc2)c2ccccc21)NO       YES
5  COC(=O)CCCCN1C(=O)[C@H](CC(=O)NC(c2ccccc2)(c2ccccc2)c2ccccc2)N=C(c2ccccc2)c2ccccc21        NO
6  COC(=O)CCCCN1C(=O)[C@H](CCCNC(=N)NS(=O)(=O)c2c(C)c(C)c3c(c2C)CC(C)(C)O3)N=C(c2ccccc2)c2ccccc21        NO
7  O=C1CN=C(c2ccccc2)c2ccccc2N1 [RO-052921]        NO
8  CC(C)(C)OC(=O)CC[C@@H]1N=C(c2ccccc2)c2ccccc2N(CCCCC(=O)NO)C1=O       YES
9  C[C@@H]1N=C(c2ccccc2)c2ccccc2N(CCCCC(=O)O)C1=O        NO

###

# pIC50 annotations
Target: Protein deacetylase HDAC6 (Homo sapiens, UniProt Q9UBN7)
Sequence (Q9UBN7 whole entry): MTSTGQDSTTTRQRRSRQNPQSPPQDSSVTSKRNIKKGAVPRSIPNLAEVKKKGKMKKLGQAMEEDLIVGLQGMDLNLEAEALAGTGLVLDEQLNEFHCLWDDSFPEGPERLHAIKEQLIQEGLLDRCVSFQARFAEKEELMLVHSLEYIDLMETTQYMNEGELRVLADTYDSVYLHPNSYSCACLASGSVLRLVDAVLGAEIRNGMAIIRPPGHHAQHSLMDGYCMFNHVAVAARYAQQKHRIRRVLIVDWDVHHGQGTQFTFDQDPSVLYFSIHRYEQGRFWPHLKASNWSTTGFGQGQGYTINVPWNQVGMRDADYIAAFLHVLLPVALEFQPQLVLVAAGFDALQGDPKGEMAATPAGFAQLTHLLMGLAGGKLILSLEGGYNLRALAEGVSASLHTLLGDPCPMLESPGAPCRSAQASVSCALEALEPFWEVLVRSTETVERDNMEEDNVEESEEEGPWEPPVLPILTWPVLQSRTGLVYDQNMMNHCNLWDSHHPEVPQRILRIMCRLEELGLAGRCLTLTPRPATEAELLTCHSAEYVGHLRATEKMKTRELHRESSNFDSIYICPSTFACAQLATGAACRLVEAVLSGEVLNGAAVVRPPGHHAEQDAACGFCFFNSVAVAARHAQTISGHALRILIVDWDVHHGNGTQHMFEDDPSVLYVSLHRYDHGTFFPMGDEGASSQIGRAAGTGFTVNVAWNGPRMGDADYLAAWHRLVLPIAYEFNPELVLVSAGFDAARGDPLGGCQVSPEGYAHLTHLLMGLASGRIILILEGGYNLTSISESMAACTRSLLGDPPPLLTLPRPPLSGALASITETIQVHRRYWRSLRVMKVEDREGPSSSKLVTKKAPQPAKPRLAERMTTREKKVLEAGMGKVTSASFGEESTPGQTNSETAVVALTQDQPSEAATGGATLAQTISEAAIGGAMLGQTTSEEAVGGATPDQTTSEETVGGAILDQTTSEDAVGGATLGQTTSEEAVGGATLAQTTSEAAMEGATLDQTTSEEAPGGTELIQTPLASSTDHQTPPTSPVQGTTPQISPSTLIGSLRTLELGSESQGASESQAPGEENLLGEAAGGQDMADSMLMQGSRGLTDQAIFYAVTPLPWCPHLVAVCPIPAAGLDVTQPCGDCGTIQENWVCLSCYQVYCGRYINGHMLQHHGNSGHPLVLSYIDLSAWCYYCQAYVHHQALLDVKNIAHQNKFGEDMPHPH
pIC50: −log10 of the molar value.
quantityName: pIC50

> print(dat)
                                  itemsmiles  result
 1  O=C(CCCCN1C(=O)[C@H](CO)N=C(c2ccccc2)c2ccccc21)NO    5.20
 2  C[C@H](OCc1ccccc1)[C@@H]1N=C(c2ccccc2)c2ccccc2N(CCCCC(=O)O)C1=O  < 4.52
 3  O=C(C[C@@H]1N=C(c2ccccc2)c2ccccc2NC1=O)NC(c1ccccc1)(c1ccccc1)c1ccccc1  < 4.52
 4  O=C(CC[C@@H]1N=C(c2ccccc2)c2ccccc2NC1=O)NO  < 4.52
 5  CC[C@H](C)[C@@H]1N=C(c2ccccc2)c2ccccc2NC1=O  < 4.52
 6  CC(C)(C)OC[C@@H]1N=C(c2ccccc2)c2ccccc2N(CCCCC(=O)O)C1=O  < 4.52
 7  COC(=O)CCCCN1C(=O)CN=C(c2ccccc2)c2ccccc21  < 4.52
 8  COC(=O)CCCCN1C(=O)[C@H]([C@@H](C)OCc2ccccc2)N=C(c2ccccc2)c2ccccc21  < 4.52
 9  CC(C)(C)OC(=O)CC[C@@H]1N=C(c2ccccc2)c2ccccc2NC1=O  < 4.52
10  CC(C)(C)Oc1ccc(C[C@@H]2N=C(c3ccccc3)c3ccccc3NC2=O)cc1  < 4.52
11  CC(C)(C)Oc1ccc(C[C@@H]2N=C(c3ccccc3)c3ccccc3N(CCCCC(=O)O)C2=O)cc1  < 4.52
12  CC(C)[C@@H]1N=C(c2ccccc2)c2ccccc2N(CCCCC(=O)O)C1=O  < 4.52
13  CC(C)(C)OC(=O)CC[C@@H]1N=C(c2ccccc2)c2ccccc2N(CCCCC(=O)NO)C1=O    5.63
14  O=C(CCCCN1C(=O)[C@H](Cc2ccc(O)cc2)N=C(c2ccccc2)c2ccccc21)NO    5.07
15   O=C(O)C[C@H]1N=C(c2ccccc2)c2ccccc2NC1=O  < 4.52
16  O=C1Nc2ccccc2C(c2ccccc2)=N[C@H]1Cc1cn(C(c2ccccc2)(c2ccccc2)c2ccccc2)cn1  < 4.52
17  COC(=O)CCCCN1C(=O)[C@H](CCCCNC(=O)OC(C)(C)C)N=C(c2ccccc2)c2ccccc21  < 4.52
18  CC(C)(C)OC(=O)n1cc(C[C@@H]2N=C(c3ccccc3)c3ccccc3NC2=O)c2ccccc21  < 4.52
19  O=C(CCCCN1C(=O)[C@H](Cc2cc3ccccc3[nH]2)N=C(c2ccccc2)c2ccccc21)NO    5.71
20  CC(C)(C)SC[C@H]1N=C(c2ccccc2)c2ccccc2N(CCCCC(=O)NO)C1=O    5.27
21  O=C(O)C[C@@H]1N=C(c2ccccc2)c2ccccc2N(CCCCC(=O)NO)C1=O    4.70
22  CC(C)(C)OC(=O)C[C@@H]1N=C(c2ccccc2)c2ccccc2N(CCCCC(=O)O)C1=O  < 4.52
23  NCCCC[C@@H]1N=C(c2ccccc2)c2ccccc2N(CCCCC(=O)NO)C1=O    4.92
24  O=C(O)C[C@@H]1N=C(c2ccccc2)c2ccccc2NC1=O  < 4.52
25  O=C(O)CC[C@@H]1N=C(c2ccccc2)c2ccccc2NC1=O  < 4.52
26  CC(C)(C)OC(=O)CC[C@@H]1N=C(c2ccccc2)c2ccccc2N(CCCCC(=O)O)C1=O  < 4.52
27     CSCC[C@@H]1N=C(c2ccccc2)c2ccccc2NC1=O  < 4.52
28  COC(=O)CCCCN1C(=O)[C@@H](CSC(C)(C)C)N=C(c2ccccc2)c2ccccc21  < 4.52
29  CC(C)(C)OC(=O)n1c(C[C@@H]2N=C(c3ccccc3)c3ccccc3N(CCCCC(=O)O)C2=O)cc2ccccc21  < 4.52
30  CC(C)(C)OC(=O)NCCCC[C@@H]1N=C(c2ccccc2)c2ccccc2N(CCCCC(=O)O)C1=O  < 4.52
31  CC(C)(C)OC(=O)NCCCC[C@@H]1N=C(c2ccccc2)c2ccccc2NC1=O  < 4.52
32  N=C(N)NCCC[C@@H]1N=C(c2ccccc2)c2ccccc2N(CCCCC(=O)NO)C1=O    5.58
33   CC(C)C[C@@H]1N=C(c2ccccc2)c2ccccc2NC1=O  < 4.52
34  O=C(C[C@H]1N=C(c2ccccc2)c2ccccc2NC1=O)NO  < 4.52
35  COC(=O)CCCCN1C(=O)[C@H](CCC(=O)OC(C)(C)C)N=C(c2ccccc2)c2ccccc21  < 4.52
36  COC(=O)CCCCN1C(=O)[C@H](CC(=O)OC(C)(C)C)N=C(c2ccccc2)c2ccccc21  < 4.52
37  C[C@@H](OCc1ccccc1)[C@@H]1N=C(c2ccccc2)c2ccccc2N(CCCCC(=O)NO)C1=O    5.69
38  O=C(CCCCN1C(=O)[C@H](Cc2cncn2C(c2ccccc2)(c2ccccc2)c2ccccc2)N=C(c2ccccc2)c2ccccc21)NO    5.32
